# assay-target: FGFR3 kinase (Homo sapiens (Human), UniProt P22607, K650E)
# Sequence (P22607 23-806 K650E): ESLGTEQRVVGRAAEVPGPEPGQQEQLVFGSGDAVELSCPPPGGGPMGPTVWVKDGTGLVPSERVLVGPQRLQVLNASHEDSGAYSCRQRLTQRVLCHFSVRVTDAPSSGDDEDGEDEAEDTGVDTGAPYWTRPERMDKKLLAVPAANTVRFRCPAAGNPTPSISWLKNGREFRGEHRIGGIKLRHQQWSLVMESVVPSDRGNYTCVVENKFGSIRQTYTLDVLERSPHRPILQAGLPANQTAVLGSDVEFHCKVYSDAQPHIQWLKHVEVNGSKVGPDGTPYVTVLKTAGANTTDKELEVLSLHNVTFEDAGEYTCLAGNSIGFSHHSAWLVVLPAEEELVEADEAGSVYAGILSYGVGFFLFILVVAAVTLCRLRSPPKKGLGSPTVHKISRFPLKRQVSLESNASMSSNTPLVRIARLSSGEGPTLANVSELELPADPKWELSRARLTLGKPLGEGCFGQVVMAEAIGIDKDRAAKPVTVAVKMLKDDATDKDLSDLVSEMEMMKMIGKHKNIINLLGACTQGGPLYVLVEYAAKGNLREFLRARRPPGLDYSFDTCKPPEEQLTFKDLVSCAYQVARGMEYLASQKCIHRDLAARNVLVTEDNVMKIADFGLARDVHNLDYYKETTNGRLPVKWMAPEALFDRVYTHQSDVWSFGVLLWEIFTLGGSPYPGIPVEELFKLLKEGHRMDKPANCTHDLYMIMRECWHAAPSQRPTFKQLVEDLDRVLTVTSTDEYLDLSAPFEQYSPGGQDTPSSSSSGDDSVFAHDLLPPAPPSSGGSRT
# measurement-protocol: FGFR3 kinase inhibition assay (radiometric filter binding / LanthaScreen TR-FRET)
# condition-set: read-out: rating (FGFR3 kinase IC50)
Exercise: state measured IC50 for each of the compounds provided.

Looking for the measured IC50 of CCN1CCN(Cc2ccc(NC(=O)c3ccc(-c4c(Cl)c(OC)cc(OC)c4Cl)c4cccnc34)cn2)CC1 [Example 169] , can you help?
100 to 500 nM

Provide the reported IC50 of each entry below, same order.
1. COc1cc(OC)c(Cl)c(-c2ccc(C(=O)Nc3ccc(N(C)C4CCN(C)CC4)nc3)c3nccnc23)c1Cl [Example 37]
2. CCN1CCN(c2ccc(NC(=O)c3ccc(-c4c(Cl)c(OC)cc(OC)c4Cl)c4nccnc34)cc2)CC1 [Example 1]
3. COc1cc(OC)c(Cl)c(-c2ccc(C(=O)Nc3ccc(CN4CCNCC4)nc3)c3ncccc23)c1Cl [Example 171]

< 100 nM
< 100 nM
500 to 50000 nM

Provide the reported IC50 of each entry below, same order.
1. COc1cc(OC)c(Cl)c(-c2ccc(C(=O)Nc3ccc(OCCN(C)C)cc3)c3nccnc23)c1Cl [Example 5]
2. COc1cc(OC)c(Cl)c(-c2ccc(C(=O)Nc3ccc(CN4CCN(C)CC4)cn3)c3ncccc23)c1Cl [Example 164]
3. COc1cc(OC)c(Cl)c(-c2ccc(C(=O)Nc3ccc(CN4CCS(=O)(=O)CC4)cn3)c3nccnc23)c1Cl [Example 104]
4. COc1cc(OC)c(Cl)c(-c2ccc(C(=O)Nc3nnc[nH]3)c3ncccc23)c1Cl [Example 163]
5. COc1cc(OC)c(Cl)c(-c2ccc(C(=O)Nc3ccc(N4CCN(C(C)C)CC4)nc3)c3nccnc23)c1Cl [Example 33]
6. COc1cc(OC)c(Cl)c(-c2ccc(C(=O)Nc3cccnc3)c3ncc(N(C)CCN(C)C)nc23)c1Cl [Example 87]
7. COc1cc(OC)cc(-c2ccc(C(=O)Nc3ccc(CN4CCNCC4)cn3)c3nccnc23)c1 [Example 117]

1: < 100 nM; 2: < 100 nM; 3: 100 to 500 nM; 4: 500 to 50000 nM; 5: < 100 nM; 6: 500 to 50000 nM; 7: 500 to 50000 nM

Provide the reported IC50 of each entry below, same order.
1. COc1cc(OC)c(Cl)c(-c2ccc(C(=O)Nc3ccn(CCN(C)C)c3)c3nccnc23)c1Cl [Example 121]
2. CCN1CCN(Cc2ccc(NC(=O)c3ccc(-c4c(F)c(OC)cc(OC)c4F)c4nccnc34)cn2)CC1 [Example 88]
3. COc1cc(OC)c(Cl)c(-c2ccc(C(=O)Nc3ccc(CN(C)CCN(C)C)cn3)c3nccnc23)c1Cl [Example 81]
4. CCN1CCN(c2ccc(NC(=O)c3ccc(-c4c(C)cccc4C)c4nccnc34)cc2)CC1 [Example 72]
5. COc1cc(OC)c(Cl)c(-c2ccc(C(=O)Nc3nccn3Cc3ccccc3)c3ncccc23)c1Cl [Example 160]
6. CCN1CCN(Cc2ccc(NC(=O)c3ccc(-c4cc(OC)cc(OC)c4)c4nccnc34)nc2)CC1 [Example 115]
7. COc1cc(OC)c(F)c(-c2ccc(C(=O)Nc3ccc(CN4CCS(=O)(=O)CC4)cn3)c3nccnc23)c1F [Example 140]
8. COc1ccc(Cl)c(-c2ccc(C(=O)Nc3ccc(OCCN(C)C)cc3)c3nccnc23)c1 [Example 65]

1: 500 to 50000 nM; 2: < 100 nM; 3: < 100 nM; 4: 500 to 50000 nM; 5: 500 to 50000 nM; 6: 500 to 50000 nM; 7: < 100 nM; 8: 500 to 50000 nM
